Listed molecules paired with reported GI50
Test system: BT-549 breast
ASSAY EXPLANATION: NCI tumour cell line growth inhibition, 48 h

Worked set:
# MOLECULE, QUANTITY MEASURED, RESULT
records = [
    ("CCN1C(=O)CCCc2c1ccc(Nc1ncc(Cl)c(NC3[C@@H](C(N)=O)[C@@H]4C=C[C@H]3C4)n1)c2OC (stereo not given in full)", "GI50", "3610 nM"),
    ("Cn1nc(-c2ccc(Cl)cc2)nc2c(=O)n(C)c(=O)nc1-2", "GI50", "968 nM"),
    ("Cc1cc2cc3ccc(N(C)C)cc3nc2cc1N", "GI50", "1640 nM"),
    ("N[C@@H]1C(=O)N2C(C(=O)OC(c3ccccc3)c3ccccc3)=C(CCl)CS[C@H]12", "GI50", "25400 nM"),
]

Now let's try a different one.
Return reported GI50; argument: "O=[N+]([O-])c1ccc(Oc2nc(Nc3ccc(O[C@H]4CO[C@H]5[C@@H]4OC[C@@H]5O)c(Cl)c3)ncc2F)c(Cl)c1"
1290 nM

---

TGI by entry:
System: RXF-631 renal
ASSAY EXPLANATION: NCI tumour cell line growth inhibition, 48 h

// solved cases for TGI follow
# COMPOUND, TGI
rows = [
    ("O=C1NC(=O)C(=Nc2cccc3c(=O)[nH][nH]c(=O)c23)C(c2nc3ccccc3s2)C1=O (stereo not given)", "> 100 µM"),
    ("O=c1cc(-c2c[nH]c3ccccc23)[nH]c2cc3c(cc12)OCO3", "> 100 µM"),
    ("CCOc1ccc2c(c1)[n+]([O-])c(-c1ccc(Br)cc1)c(N)[n+]2[O-]", "> 100 µM"),
    ("N#CC1CCCCOCCOCCOCCOCCOCCCCCC1=O (stereo not given)", "> 100 µM"),
]

Provide the documented TGI with RXF-631 renal as the system for "O=C1c2ccccc2C(=O)c2c(O)c(NCCCNCCO)cc(O)c21"
25 µM

---

This listing pairs compounds with measured TGI.
Test system: KM20L2 colon
ASSAY EXPLANATION: NCI tumour cell line growth inhibition, 48 h

# COMPOUND, TGI
records = [
    ("O=C1C=C2SC3C[C@@]24CC1[N+]1=c2c4c(c(O)c4c2=C(C=N4)CC1)N3", "3.81 µM"),
]

Write down the reported TGI of "CCCCCCCCCCCCCCCCNCCCN(C)CCCN" , test system: KM20L2 colon.
32.7 µM

Okay, and "O=[N+]([O-])c1ccccc1S(=O)(=O)c1ccccc1" ?
> 100 µM

---

Tested on: HOP-92 NSCLC
ASSAY EXPLANATION: NCI tumour cell line growth inhibition, 48 h
Everything with TGI lower than 20 µM is no (0); everything else, including exactly 20 µM, is yes (1).

Worked examples follow.
# COMPOUND, CLASS NAME
data = [
    ("COc1cc(OC)c2nccc(NCCCN(C)C)c2c1[N+](=O)[O-]", "yes (1)"),
    ("CCN(Cc1ccc(F)cc1)c1ccc(CO)c(C)c1", "yes (1)"),
    ("C(=Nc1ccc(-c2nc3ccccc3[nH]2)cc1)c1ccc[nH]1", "yes (1)"),
    ("O=[N+]([O-])c1ccc(Oc2nc(Nc3ccc(O[C@H]4CO[C@H]5[C@@H]4OC[C@@H]5O)c(Cl)c3)ncc2F)c(Cl)c1", "no (0)"),
    ("O=c1c2c3c(sc2nc2n1N=C(c1ccc(Cl)cc1)CS2)CCCC3", "yes (1)"),
    ("CCCCCCCC(CC(=O)NC(CO)C(=O)NC(CO)CC(C)C)OC(=O)CC(CCCCCCC)OC(=O)CC(CCCCCCC)OC1OC(C)C(O)C(OC2OC(C)C(O)C(O)C2OC(C)=O)C1O (centres undefined)", "yes (1)"),
    ("CCO[C@@]1(COCc2ccccc2)OC(=O)C[C@@H]1N1C(=O)OC[C@@H]1c1ccccc1", "yes (1)"),
    ("CCC/C=C1\\CCC(CN(C)C)C1=O (centres undefined)", "no (0)"),
]

Here is another compound to look at.
Say whether "COc1ccc2c(c1)CC[C@@H]1[C@@H]2CC[C@]2(C)[C@@H](NC(=O)/C=C/c3ccc(O)c(O)c3)CC[C@@H]12" shows TGI of 20 µM or more.
no (0)
